molecular target: UniProtKB Q12809; test: cell-based; conditions: (-LOG10(IC50), µM)
Sequence (Q12809 whole entry): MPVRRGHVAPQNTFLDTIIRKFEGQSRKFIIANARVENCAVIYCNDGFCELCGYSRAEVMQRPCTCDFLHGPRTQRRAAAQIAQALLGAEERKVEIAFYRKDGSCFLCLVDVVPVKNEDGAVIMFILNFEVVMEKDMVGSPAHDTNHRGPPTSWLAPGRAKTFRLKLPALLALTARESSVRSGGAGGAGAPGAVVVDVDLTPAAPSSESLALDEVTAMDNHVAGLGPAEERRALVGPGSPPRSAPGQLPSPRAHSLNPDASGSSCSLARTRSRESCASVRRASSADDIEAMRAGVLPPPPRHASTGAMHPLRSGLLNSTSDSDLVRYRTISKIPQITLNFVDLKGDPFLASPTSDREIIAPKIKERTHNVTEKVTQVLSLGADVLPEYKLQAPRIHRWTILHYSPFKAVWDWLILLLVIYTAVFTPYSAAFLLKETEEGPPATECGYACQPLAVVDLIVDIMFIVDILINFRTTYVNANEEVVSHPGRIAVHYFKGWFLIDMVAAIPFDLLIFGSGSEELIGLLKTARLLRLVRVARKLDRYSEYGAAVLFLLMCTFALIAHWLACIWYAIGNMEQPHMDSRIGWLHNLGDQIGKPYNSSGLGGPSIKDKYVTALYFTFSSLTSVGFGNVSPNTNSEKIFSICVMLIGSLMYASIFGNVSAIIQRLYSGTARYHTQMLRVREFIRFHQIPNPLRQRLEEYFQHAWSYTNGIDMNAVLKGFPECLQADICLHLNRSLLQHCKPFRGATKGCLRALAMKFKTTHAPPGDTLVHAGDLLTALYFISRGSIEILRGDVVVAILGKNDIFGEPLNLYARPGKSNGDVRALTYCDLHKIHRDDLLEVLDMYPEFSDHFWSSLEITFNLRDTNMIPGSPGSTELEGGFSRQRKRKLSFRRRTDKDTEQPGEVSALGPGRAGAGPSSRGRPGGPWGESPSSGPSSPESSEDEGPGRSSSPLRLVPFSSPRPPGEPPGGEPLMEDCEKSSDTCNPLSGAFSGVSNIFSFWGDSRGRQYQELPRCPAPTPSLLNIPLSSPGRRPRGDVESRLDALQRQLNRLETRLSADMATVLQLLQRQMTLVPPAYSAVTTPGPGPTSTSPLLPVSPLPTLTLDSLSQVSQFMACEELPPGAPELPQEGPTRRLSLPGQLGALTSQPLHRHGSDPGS
Classify: 1 (yes) when IC50 is strictly less than 20 µM; 0 (no) when IC50 is not.

| compound | category.label |
| --- | --- |
| CCN(CC)CCOC(=O)C(O)(c1ccccc1)c1ccccc1 [Benactyzine] | 1 (yes) |
| CC(C)(C)c1cc(C(C)(C)C)c(O)c(C(C)(C)C)c1 [2,4,6-Tris(tert-butyl)phenol] | 1 (yes) |
| CN1CCN(CCC(=O)N2c3ccccc3Sc3ccc(C(F)(F)F)cc32)CC1 [Ftormetazine] | 1 (yes) |
| CC(C)c1ccc2c(c1)CC[C@H]1[C@](C)(CN)CCC[C@]21C [Dehydroabietylamine acetate] | 1 (yes) |
| CCc1cc(Cc2cc(CC)cc(C(C)(C)C)c2O)c(O)c(C(C)(C)C)c1 | 1 (yes) |

We next turn to a different compound, shown below.
# input is_below(IC50, 20 µM) for CCOC(=O)COc1cc(-c2nn(C)c(OC(F)F)c2Cl)c(F)cc1Cl [Pyraflufen-ethyl] ?
# output 0 (no)
